# melting point per entry

Record excerpt, results attached:
CCCc1nc2c(N)nc(Cl)c(C)c2n1CCOCCN; 158 to 161 °C
Cc1nn(CC(F)(F)F)c(C(N)=O)c1[N+](=O)[O-]; 205 to 207 °C

Turning now to a further compound:
Q. Look up melting point: CCCCc1ccc(NC(=O)CCc2ccccc2)c(=O)n1CC(=O)O
A. 132 to 134 °C

---

property-name: melting point

CC1(C)C=C(C(=O)NCC2COC(C)(C)O2)C(C)(C)N1 (stereo not drawn); 55 to 57 °C
COC(=O)Cc1ccccc1OCc1cc(OCc2nc(-c3ccccc3)sc2C)no1; 108 to 109 °C

Turning now to a further molecule:
Q. Look up melting point: CCCCCCCCCCCCCCC(COC(C)=O)(COC(C)=O)NC(C)=O
A. 84 to 85.5 °C

---

# melting point per entry
Residues, ends and D or L forms follow the SMILES beside them. *: point of attachment. Boc = CC(C)(C)OC(=O)*; OBn = c1ccc(CO*)cc1; βAla = NCCC(=O)O

CCC(=O)NC[C@H]1CN(c2ccc3c(c2)C[C@@H](C)N3C=O)C(=O)O1; 118 to 119 °C
CC(=O)N(O)Cc1ccc2c(c1)OCc1ccccc1C2=O; 65 to 115 °C
CC(C)(C)C(=O)c1c[nH]c2ncc(-c3cccc(NC4=NCCN4)c3)nc12; 228 to 230 °C
Cn1cc(-c2ccccc2)c(=S)c(-c2cccc(C(F)(F)F)c2)c1; 210 °C
CN1C2CCCC1CC(NC(=O)c1cccc3nc(-c4ccc(F)cc4)oc13)C2 (stereo not given); 229 to 231 °C

Q. Look up melting point: CC(C)(C)OC(=O)NCCC(=O)NC(CC(=O)OCc1ccccc1)C(=O)NC(Cc1ccccc1)C(=O)OCc1ccccc1 (stereo not given) ({Boc-βAla}-Asp(OBn)-Phe-OBn; configuration not given here)
A. 124 to 125 °C

Q. Look up melting point: CCCOc1ccc(C(CC(N)=O)N2C(=O)c3ccccc3C2=O)cc1 (stereo not given)
A. 110 °C

---

property-name: melting point

Record excerpt, results attached:
Cc1ccc2occ(CC3=NOS(=O)N3)c2c1 (configuration not stated); 152 to 153 °C
CCCCCCCCCCCCCCCCn1cccc1C1=CC(=O)c2ccccc2C1=O; 56 to 57 °C

Q. Look up melting point: O=C1C(CCO)Oc2cc([N+](=O)[O-])ccc2N1Cc1ccc([N+](=O)[O-])cc1 (configuration not stated)
A. 100 to 104 °C

Q. Look up melting point: O=C(Cn1cccc(OCc2ccccc2)c1=O)ON1C(=O)CCC1=O
A. 187 to 188 °C

Q. Look up melting point: CCN1C(=O)C(C(=O)Nc2cccc(C(=O)Nc3ccccc3)c2)c2cc(C(C)=O)ccc21 (configuration not stated)
A. 173 to 175 °C

---

property-name: melting point

Record excerpt, results attached:
CCOC(=O)N1Cc2ccnnc2C(NN=C(C)C)C1 (stereo unspecified); 171 to 174 °C
CCCNC(=O)Cc1ccc2ccn(C3CCN(CCc4ccc(F)cc4)CC3)c2c1; 131 to 132 °C
CCCCc1sc(C(N)=O)c2c1-c1nn(C)cc1CC2; 227 to 228 °C
C[C@H]1C(=O)Nc2ccc(Cl)cc2N1C(=O)OCCBr; 133 to 136 °C
CC(=O)NCCc1nnc(S)s1; 157 to 160 °C

Q. Look up melting point: CN1CCN(c2cc(Cl)cc3c2c(=O)n(Cc2ccc(O)cc2)c(=O)n3Cc2ccccc2)CC1
A. 138 to 140 °C

Q. Look up melting point: Cc1c[nH]c(Nc2ccc(C3=NNC(=O)CC3C)cc2)nc1=O (stereo unspecified)
A. 260 to 270 °C

Q. Look up melting point: CCCCN(Cc1ccc(-c2ccccc2-c2nc(=O)o[nH]2)cc1)c1ncccc1C(=O)OCC
A. 146 to 147 °C

Q. Look up melting point: CNC(=O)N1N=C(c2ccc([N+](=O)[O-])c(C)c2)c2cc3c(cc2C=C1C)OCO3
A. 246 to 248 °C

Q. Look up melting point: CN(C(=O)NC(=O)c1ccccc1)C(=O)Nc1nc(C(Cl)(Cl)Cl)ns1
A. 70 °C

Q. Look up melting point: COC(=O)C1=CC(C)(C#N)N(c2cccc(Cl)c2Cl)N1 (stereo unspecified)
A. 66 to 67 °C

Q. Look up melting point: CCOC(=O)C(=O)Nc1nccc2snc(NC(=O)C(=O)OCC)c12
A. 168 °C

Q. Look up melting point: O=S(=O)(Nc1ccc2c(OCc3ccc(-c4ccc(C(F)(F)F)cc4)cc3F)cccc2c1)C(F)(F)F
A. 98 to 100 °C

Q. Look up melting point: O=C(O)CCCNC(=O)n1cc(F)c(=O)[nH]c1=O
A. 146 to 147 °C

Q. Look up melting point: Oc1ccc(Nc2nc(NCc3ccco3)nc(Nc3ccc(F)c(F)c3)n2)cc1
A. 75 to 77 °C

Q. Look up melting point: COc1cc(Nc2c(-c3ccc(S(C)(=O)=O)cc3)cnn(CC(F)(F)F)c2=O)cc(C(F)(F)F)c1
A. 206 to 208 °C

Q. Look up melting point: ClC(c1ccccc1)(c1ccccc1)c1ccc2ccccc2c1
A. 92 to 93 °C

Q. Look up melting point: c1cc(OCc2ccc3ccccc3n2)cc(C2SCCCS2)c1
A. 92 to 93 °C

Q. Look up melting point: N#Cc1csc(CN2C(=O)C3(COc4cc5c(cc43)OCO5)c3ccccc32)c1 (stereo unspecified)
A. 207 to 209 °C

Q. Look up melting point: CC(C)Cn1cnc2c(N)nc3ccc(CCc4ccccc4)cc3c21
A. 175 to 178 °C

Q. Look up melting point: COc1ccc(-c2cc3cc(OC)cc(C=C(Cl)Cl)c3o2)cc1
A. 129 to 131 °C

Q. Look up melting point: Cc1oc2nc3c(c(NC(=O)C(C)C)c2c1C)CCCC3
A. 245 to 246 °C

Source: a melting point compilation (Tetko et al.; mined from patent text by program, amines drawn as free bases though some values may be those of a salt)
